Catalogue of compounds with associated Percent Effect
Target: Ubiquitin-activating enzyme e1, putative (Leishmania donovani (strain BPK282A1)) (UniProt E9BSI1)
Assay: Leishmania donovani Ubiquitin Activating Enzyme (LdE1)
Format: functional
Parameters: scale not given: direction of the effect not stated beside the values
Settings: 30 µM
Potency and affinity values are given separately.
Answer format: numeric, % implied, no suffix.

Ask: Returns the measured Percent Effect for the input compound. Input: CC1CCc2nc(O)c(C(=O)NCc3cccc(F)c3)cc2C1 (stereo not given)
Reply: -12

Ask: Returns the measured Percent Effect for the input compound. Input: O=C(Cc1ccsc1)NCC1OCCc2cn(CC3CC3)nc21 (stereo not given)
Reply: 7.79

Ask: Returns the measured Percent Effect for the input compound. Input: COc1c(CNC(c2ccc(F)cc2)C(C)(C)C)c(C)nn1C (stereo not given)
Reply: 5.26

Further cases:
Ask: Returns the measured Percent Effect for the input compound. Input: COCc1nc(CN2CCC3(CCCO3)CCC2=O)no1 (stereo not given)
Reply: 5.33

Ask: Returns the measured Percent Effect for the input compound. Input: CCc1nc(C2CCCN(C(=O)c3cccc4c3ccn4C)C2)no1 (stereo not given)
Reply: -5.41

Ask: Returns the measured Percent Effect for the input compound. Input: COc1ccc(-c2noc(CN3CCc4cncnc4C3)n2)cc1
Reply: -15.8

Ask: Returns the measured Percent Effect for the input compound. Input: CN(C)c1ncc(CN2CCC(c3nnsc3S(C)(=O)=O)CC2)cn1
Reply: -1.35

Ask: Returns the measured Percent Effect for the input compound. Input: O=C(NC1(c2cccc(F)c2)CCOCC1)c1cc[nH]n1
Reply: 5.2

###

Biological target: Ubiquitin-activating enzyme e1, putative (Leishmania donovani (strain BPK282A1))
Sequence (whole entry): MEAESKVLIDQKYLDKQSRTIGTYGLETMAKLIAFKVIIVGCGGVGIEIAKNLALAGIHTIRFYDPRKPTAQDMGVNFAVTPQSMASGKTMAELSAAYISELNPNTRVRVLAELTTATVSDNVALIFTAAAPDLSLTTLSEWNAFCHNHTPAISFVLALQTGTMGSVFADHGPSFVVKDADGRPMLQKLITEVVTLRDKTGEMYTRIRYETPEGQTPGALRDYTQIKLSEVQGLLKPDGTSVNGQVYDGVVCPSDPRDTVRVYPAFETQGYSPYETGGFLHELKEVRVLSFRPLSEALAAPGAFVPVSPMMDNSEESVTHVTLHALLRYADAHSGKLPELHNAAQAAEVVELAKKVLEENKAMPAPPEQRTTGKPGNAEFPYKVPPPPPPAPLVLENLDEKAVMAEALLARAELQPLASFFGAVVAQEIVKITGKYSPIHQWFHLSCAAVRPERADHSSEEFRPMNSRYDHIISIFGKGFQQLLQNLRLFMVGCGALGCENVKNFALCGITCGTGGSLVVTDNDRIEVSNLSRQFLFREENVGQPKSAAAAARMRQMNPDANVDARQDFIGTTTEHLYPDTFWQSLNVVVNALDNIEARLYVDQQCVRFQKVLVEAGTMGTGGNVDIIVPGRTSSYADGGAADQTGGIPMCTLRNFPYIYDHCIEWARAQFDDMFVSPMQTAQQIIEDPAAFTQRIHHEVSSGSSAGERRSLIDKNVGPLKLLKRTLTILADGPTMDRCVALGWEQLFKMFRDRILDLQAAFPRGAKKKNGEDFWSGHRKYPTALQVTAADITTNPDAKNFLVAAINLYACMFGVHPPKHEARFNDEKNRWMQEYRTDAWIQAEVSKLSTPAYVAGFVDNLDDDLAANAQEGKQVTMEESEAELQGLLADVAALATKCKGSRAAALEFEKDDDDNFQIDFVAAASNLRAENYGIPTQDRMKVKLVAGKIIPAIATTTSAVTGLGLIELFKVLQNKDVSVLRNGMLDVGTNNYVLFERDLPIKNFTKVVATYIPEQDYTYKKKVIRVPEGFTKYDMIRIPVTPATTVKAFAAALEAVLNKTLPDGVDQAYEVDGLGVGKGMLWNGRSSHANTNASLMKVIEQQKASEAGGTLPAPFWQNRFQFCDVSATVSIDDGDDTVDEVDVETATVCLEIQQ
Test: Leishmania donovani Ubiquitin Activating Enzyme (LdE1)
Type: functional
Design: scale not given: direction of the effect not stated beside the values
Details: 30 µM
Entries with a potency or affinity are not part of this list.
METRIC_NAME: Percent Effect (%)
Answer format: numeric, % implied, no suffix.

Ask: Returns the measured Percent Effect for the input compound. Input: Cc1ccc(S(=O)(=O)N2CCc3nc(C4CCNCC4)ncc3C2)cc1
Reply: 9.46

Ask: Returns the measured Percent Effect for the input compound. Input: COCCN1CCN(C(=O)c2cc(C(C)C)on2)[C@H]2CS(=O)(=O)C[C@H]21
Reply: 1.39

Ask: Returns the measured Percent Effect for the input compound. Input: CCn1cc2c(n1)CN(Cc1ccoc1)CC2COCC1CC1 (stereo unspecified)
Reply: -10.8

Ask: Returns the measured Percent Effect for the input compound. Input: Cc1ccc(C2CSCCN2C(=O)c2ccsc2)o1 (stereo unspecified)
Reply: 8.11

Ask: Returns the measured Percent Effect for the input compound. Input: Cc1noc(NC(=O)c2ccc(OC(F)(F)F)cc2)n1
Reply: 18.4

Ask: Returns the measured Percent Effect for the input compound. Input: Cc1ccc(C)c(OC2CCN(C(=O)c3ccc(O)nc3)CC2)c1
Reply: 15.8

###

System: Trypanosoma cruzi
Experiment: Trypanosoma cruzi phosphomannomutase and mannose-1-phosphate guanylyltransferase assay
Type: functional
Parameters: scale not given: direction of the effect not stated beside the values
Conditions: 10 µM
Catalogue of compounds with associated Percent Effect
Answer format: numeric, % implied, no suffix.

# count of solved cases: 5
Ask: Returns the measured Percent Effect for the input compound. Input: O=C(CO[C@@H]1CC[C@H]2[C@H]1OCCN2CC1CCOCC1)N1CCCC1
Reply: -3.12

Ask: Returns the measured Percent Effect for the input compound. Input: Cc1nc(C)n(C2CCCN(C(=O)COCc3ccccc3)C2)n1 (stereo unspecified)
Reply: 2.25

Ask: Returns the measured Percent Effect for the input compound. Input: N#Cc1ccnc(N2CCC(c3nccn3Cc3cscn3)CC2)c1
Reply: 3.8

Ask: Returns the measured Percent Effect for the input compound. Input: COc1ccc(Br)c(C(=O)NCCNc2ccc(C(F)(F)F)cn2)c1
Reply: -1.08

Ask: Returns the measured Percent Effect for the input compound. Input: Cc1nnc(NCC2(c3ccc(Cl)cc3Cl)CCOCC2)c(C#N)c1C
Reply: 12.2

Further cases:
Ask: Returns the measured Percent Effect for the input compound. Input: CN(C)Cc1ccnc(C2CCCN2Cc2cc[nH]n2)n1 (stereo unspecified)
Reply: -1.78

Ask: Returns the measured Percent Effect for the input compound. Input: Cc1ccc(-c2cc(CNC(=O)N3CCC(CO)CC3)on2)cc1
Reply: -4.74

Ask: Returns the measured Percent Effect for the input compound. Input: CN(C)C(=O)CN1CCCC2(CCN(c3ccsc3)C2=O)C1 (stereo unspecified)
Reply: -5.71

Ask: Returns the measured Percent Effect for the input compound. Input: COc1ccc(F)cc1C(C)NC(=O)Nc1nnc(C)s1 (stereo unspecified)
Reply: 4.99

Ask: Returns the measured Percent Effect for the input compound. Input: CN(CCCc1cnn(C)c1)C(=O)C1COc2ccccc2C1 (stereo unspecified)
Reply: -1.37

Ask: Returns the measured Percent Effect for the input compound. Input: CCc1nnc2n1CCN(Cc1ccc3c(c1)OCCO3)C2
Reply: -3.06

###

Target: Chromo domain-containing protein 1 (Saccharomyces cerevisiae (strain ATCC 204508 / S288c) (Baker's yeast)) (UniProt P32657)
Sequence (P32657 whole entry, the tested form may be a part): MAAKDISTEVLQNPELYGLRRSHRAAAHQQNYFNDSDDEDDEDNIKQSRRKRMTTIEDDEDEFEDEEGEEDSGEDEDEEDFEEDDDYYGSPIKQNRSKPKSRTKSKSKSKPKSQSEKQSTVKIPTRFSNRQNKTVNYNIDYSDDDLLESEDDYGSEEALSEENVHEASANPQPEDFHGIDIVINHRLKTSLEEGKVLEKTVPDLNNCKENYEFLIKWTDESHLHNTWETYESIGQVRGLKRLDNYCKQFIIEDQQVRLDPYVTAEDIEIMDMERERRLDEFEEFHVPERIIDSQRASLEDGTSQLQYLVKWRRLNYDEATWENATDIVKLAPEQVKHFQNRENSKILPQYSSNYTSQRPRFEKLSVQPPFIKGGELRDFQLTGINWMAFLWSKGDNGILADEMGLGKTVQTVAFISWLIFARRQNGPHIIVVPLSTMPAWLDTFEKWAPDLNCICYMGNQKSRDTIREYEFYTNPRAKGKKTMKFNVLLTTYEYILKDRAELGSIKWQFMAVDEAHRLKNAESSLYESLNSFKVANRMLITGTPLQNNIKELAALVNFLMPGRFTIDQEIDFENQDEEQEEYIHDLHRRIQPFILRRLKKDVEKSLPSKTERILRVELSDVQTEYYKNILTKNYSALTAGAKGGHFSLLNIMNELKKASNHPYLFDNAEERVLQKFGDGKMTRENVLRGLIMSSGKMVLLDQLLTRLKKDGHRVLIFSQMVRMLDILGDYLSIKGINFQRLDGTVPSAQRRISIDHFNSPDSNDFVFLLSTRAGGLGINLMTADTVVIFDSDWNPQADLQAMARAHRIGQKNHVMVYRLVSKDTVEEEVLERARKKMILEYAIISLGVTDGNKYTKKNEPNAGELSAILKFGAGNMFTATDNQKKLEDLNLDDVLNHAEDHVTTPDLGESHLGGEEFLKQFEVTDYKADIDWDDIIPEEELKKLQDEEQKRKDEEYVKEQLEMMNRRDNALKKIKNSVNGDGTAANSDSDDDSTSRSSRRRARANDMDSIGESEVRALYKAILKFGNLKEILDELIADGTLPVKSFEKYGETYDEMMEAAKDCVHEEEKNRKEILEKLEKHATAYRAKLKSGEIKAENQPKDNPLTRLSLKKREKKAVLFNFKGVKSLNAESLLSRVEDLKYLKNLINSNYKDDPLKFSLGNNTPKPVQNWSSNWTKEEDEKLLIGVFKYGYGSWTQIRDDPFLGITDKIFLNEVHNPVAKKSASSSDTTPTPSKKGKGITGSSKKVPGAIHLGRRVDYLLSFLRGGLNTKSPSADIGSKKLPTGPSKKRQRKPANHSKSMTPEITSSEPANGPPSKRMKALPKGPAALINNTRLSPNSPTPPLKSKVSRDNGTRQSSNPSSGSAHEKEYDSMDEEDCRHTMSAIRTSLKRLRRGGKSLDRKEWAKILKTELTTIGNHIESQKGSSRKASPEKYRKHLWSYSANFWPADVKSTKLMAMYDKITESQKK
Test: ScCHD-1 Enzyme Inhibition Assay; further: in the data most compounds retested in dose-response had high values
Type: functional
Set-up: scale not given: direction of the effect not stated beside the values
Details: 30 µM
METRIC_NAME: Percent Effect (%)
Answer format: numeric, % implied, no suffix.

# count of solved cases: 5
Ask: Returns the measured Percent Effect for the input molecule. Input: Cc1occc1C(=O)N1CCC2(CC1)C(c1cnn(C)c1)CC(=O)N2C (stereo unspecified)
Reply: -4.17

Ask: Returns the measured Percent Effect for the input molecule. Input: CCc1nc(CN2CCCC(NCc3ncc(C(C)(C)C)o3)C2)no1 (stereo unspecified)
Reply: -24.7

Ask: Returns the measured Percent Effect for the input molecule. Input: Cc1cc(C)n(CC2CCCN2C(=O)c2cccc3[nH]ncc23)n1 (stereo unspecified)
Reply: -3.25

Ask: Returns the measured Percent Effect for the input molecule. Input: CC1CN=C(N2CCN(C(=O)Nc3nc(-c4ccccc4)ns3)CC2)S1 (stereo unspecified)
Reply: -0.289

Ask: Returns the measured Percent Effect for the input molecule. Input: O=c1ccc(-c2cccs2)nn1CN1CCCCCC1
Reply: -5.05

The record that follows has no Percent Effect shown yet.
Ask: Returns the measured Percent Effect for the input molecule. Input: CC(C)Nc1ncnc2c1CCN(C(=O)c1ccncc1F)CC2
Reply: -3.13

###

Catalogue of compounds with associated Percent Effect
Molecular target: Tyrosyl-tRNA synthetase, putative (Trypanosoma cruzi (strain CL Brener)) (UniProt Q4DSP6)
Sequence (Q4DSP6 as listed by the source): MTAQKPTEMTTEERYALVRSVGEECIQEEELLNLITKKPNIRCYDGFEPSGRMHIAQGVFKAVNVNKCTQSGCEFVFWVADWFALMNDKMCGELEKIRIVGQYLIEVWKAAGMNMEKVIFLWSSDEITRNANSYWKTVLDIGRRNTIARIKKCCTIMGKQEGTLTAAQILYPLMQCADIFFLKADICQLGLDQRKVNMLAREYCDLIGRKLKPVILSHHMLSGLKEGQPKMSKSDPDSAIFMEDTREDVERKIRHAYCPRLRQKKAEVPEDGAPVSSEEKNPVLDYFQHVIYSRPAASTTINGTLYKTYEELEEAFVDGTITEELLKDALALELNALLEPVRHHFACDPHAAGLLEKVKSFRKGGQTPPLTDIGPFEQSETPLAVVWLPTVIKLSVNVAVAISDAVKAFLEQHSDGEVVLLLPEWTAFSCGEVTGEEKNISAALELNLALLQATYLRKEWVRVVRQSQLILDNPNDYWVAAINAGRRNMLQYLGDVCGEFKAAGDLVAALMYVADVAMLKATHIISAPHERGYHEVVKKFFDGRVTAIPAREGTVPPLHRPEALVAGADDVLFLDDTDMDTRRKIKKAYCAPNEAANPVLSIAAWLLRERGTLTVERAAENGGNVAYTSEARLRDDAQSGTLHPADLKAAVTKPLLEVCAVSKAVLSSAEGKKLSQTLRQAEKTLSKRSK
Assay: Trypanosoma cruzi tyrosyl tRNA synthetase (TcYRS) _High Tyrosine SOP; further: in the data most compounds retested in dose-response had high values
Assay type: functional
Set-up: scale not given: direction of the effect not stated beside the values
Details: 30 µM
Answer format: numeric, % implied, no suffix.

Ask: What Percent Effect appears in the records for this compound with Tyrosyl-tRNA synthetase, putative (Trypanosoma cruzi (strain CL Brener)) (UniProt Q4DSP6)? CC1CCCN(C(=O)c2csc(S(N)(=O)=O)c2)CC1 (centres undefined)
Reply: 4.3

Ask: What Percent Effect appears in the records for this compound with Tyrosyl-tRNA synthetase, putative (Trypanosoma cruzi (strain CL Brener)) (UniProt Q4DSP6)? Cc1nc(CN2CCN(C(=O)c3cc(C4CC4)on3)CC2)cs1
Reply: 4.76

Further cases:
Ask: What Percent Effect appears in the records for this compound with Tyrosyl-tRNA synthetase, putative (Trypanosoma cruzi (strain CL Brener)) (UniProt Q4DSP6)? CC(O)CN1CCN(C(=O)c2cnn(-c3ccc(Cl)cc3)c2)CC1 (centres undefined)
Reply: 1.64

Ask: What Percent Effect appears in the records for this compound with Tyrosyl-tRNA synthetase, putative (Trypanosoma cruzi (strain CL Brener)) (UniProt Q4DSP6)? COCC(=O)N1CCCC2(CCN(c3ccsc3)C2=O)C1 (centres undefined)
Reply: 0

Ask: What Percent Effect appears in the records for this compound with Tyrosyl-tRNA synthetase, putative (Trypanosoma cruzi (strain CL Brener)) (UniProt Q4DSP6)? COc1cccc(CCNC(=O)CN2CCN(C)CC2C)c1 (centres undefined)
Reply: 4.95

Ask: What Percent Effect appears in the records for this compound with Tyrosyl-tRNA synthetase, putative (Trypanosoma cruzi (strain CL Brener)) (UniProt Q4DSP6)? CC(=O)Nc1nc(C(=O)N2CCCC(c3cc(C)[nH]n3)C2)cs1 (centres undefined)
Reply: 4.43

Ask: What Percent Effect appears in the records for this compound with Tyrosyl-tRNA synthetase, putative (Trypanosoma cruzi (strain CL Brener)) (UniProt Q4DSP6)? CN(c1cccnn1)C1CCN(C(=O)c2ccc3c(c2)COC3)CC1
Reply: 6.8

Ask: What Percent Effect appears in the records for this compound with Tyrosyl-tRNA synthetase, putative (Trypanosoma cruzi (strain CL Brener)) (UniProt Q4DSP6)? CS(=O)(=O)NC[C@]12COC[C@H]1CN(C(=O)Cc1ccccc1F)C2
Reply: -125

Ask: What Percent Effect appears in the records for this compound with Tyrosyl-tRNA synthetase, putative (Trypanosoma cruzi (strain CL Brener)) (UniProt Q4DSP6)? O=C1CO[C@@H]2CN(S(=O)(=O)c3ccccc3)C[C@H]2N1CC1CC1
Reply: -8.33

Ask: What Percent Effect appears in the records for this compound with Tyrosyl-tRNA synthetase, putative (Trypanosoma cruzi (strain CL Brener)) (UniProt Q4DSP6)? CC(CNC(=O)Nc1cn[nH]c1)N1CCc2ccccc2C1 (centres undefined)
Reply: 9.52
